assay: Pharmacokinetic study of LPNF-CBD formulations in freely moving rat model; format: in vivo; conditions: male, Wistar, in vivo, oral gavage, CBD 15 mg/kg
Measurement Label: AUC (ng·h/mL)
Give bare numbers, in ng·h/mL.

// AUC lookup, compound = "C=C(C)[C@@H]1CCC(C)=C[C@H]1c1c(O)cc(CCCCC)cc1O" , result: 158

* * *

test: Pharmacokinetic study of LPNF-CBD formulations in freely moving rat model; format: in vivo; details: male, Wistar, in vivo, IV, CBD 15 mg/kg, read-out: Elimination half-life (converted)
Source text: […]
Measurement Label: half-life (h)
Numbers only, in h.

The reported half-life of the compound "C=C(C)[C@@H]1CCC(C)=C[C@H]1c1c(O)cc(CCCCC)cc1O" was 4.1
